assayed system: serotonin transporter (Rattus norvegicus, UniProt P31652)
Construct: displace ^3H-paroxetine from male rat cortical membranes; from tissue; host or cells: male rat cortical membranes
Sequence (P31652 whole entry): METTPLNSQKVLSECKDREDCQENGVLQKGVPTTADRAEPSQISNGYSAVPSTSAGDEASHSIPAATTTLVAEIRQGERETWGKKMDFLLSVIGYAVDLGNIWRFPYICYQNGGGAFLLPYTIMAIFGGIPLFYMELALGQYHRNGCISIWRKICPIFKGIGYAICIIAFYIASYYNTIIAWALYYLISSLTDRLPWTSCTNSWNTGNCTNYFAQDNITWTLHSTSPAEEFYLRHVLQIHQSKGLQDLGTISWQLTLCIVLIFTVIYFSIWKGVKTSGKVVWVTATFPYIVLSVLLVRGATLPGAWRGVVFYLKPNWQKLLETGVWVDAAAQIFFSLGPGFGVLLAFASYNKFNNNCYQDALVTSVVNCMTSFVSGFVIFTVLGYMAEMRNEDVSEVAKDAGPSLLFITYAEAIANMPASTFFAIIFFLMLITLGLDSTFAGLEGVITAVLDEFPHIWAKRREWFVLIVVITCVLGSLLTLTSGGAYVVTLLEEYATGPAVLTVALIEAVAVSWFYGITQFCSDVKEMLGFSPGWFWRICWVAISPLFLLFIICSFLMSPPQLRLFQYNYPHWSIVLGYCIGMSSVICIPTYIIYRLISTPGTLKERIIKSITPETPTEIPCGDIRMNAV
measurement notes: 5-HT transporter affinity: displacement of 3H-paroxetine from male rat cortical membranes
Format: binding
condition label: displacement of 3H-paroxetine; male rat cortical membranes; read-out: 5-HT Transporter Affinity Ki
assay metric: Ki
Could you give the number and then its unit, please?

Notebook: pull reported Ki for serotonin transporter (Rattus norvegicus, UniProt P31652), entry CCCN(CCCCc1coc2c(OC)cccc12)C1COc2c(F)ccc(C(N)=O)c2C1 (stereo not drawn) [Compound 169]
528 nM

Then this compound: NC(=O)c1ccc(F)c2c1OCC(NCCCCc1c[nH]c3ccc(F)cc13)C2 (stereo not drawn) [Compound 123]
3.81 nM

Next record, please: CCCN(CCCc1c[nH]c2ccc(F)cc12)C1COc2cccc(OC)c2C1 (stereo not drawn) [Compound 23]
9 nM

Also COc1cccc2c(CCNC3COc4c(F)ccc(C(N)=O)c4C3)coc12 (stereo not drawn) [Compound 156] , if possible.
381 nM

And then C[C@@H](CCN(C1CCC1)[C@H]1COc2c(F)ccc(C(N)=O)c2C1)c1c[nH]c2ccc(F)cc12 [Compound 153a] , what is it?
61.5 nM

Similarly, CCN(CCCc1c[nH]c2ccc(F)cc12)C1COc2c(F)ccc(C(N)=O)c2C1 (single isomer, unassigned; (+)) [Compound 3b] ?
4.5 nM

Then what about the compound NC(=O)c1ccc(F)c2c1CC(N(CCCc1c[nH]c3ccc(F)cc13)Cc1ccccc1)CO2 (stereo not drawn) [Compound 74] ?
641 nM

For NC(=O)c1ccc(F)c2c1C[C@@H](NCC1CCc3[nH]c4ccc(F)cc4c3C1)CO2 (single isomer, unassigned; (-)) [Compound 175a] then?
20.9 nM

Try this compound next: NC(=O)c1ccc(F)c2c1C[C@@H](NCC1CCc3c([nH]c4ccc(F)cc34)C1)CO2 (single isomer, unassigned; (-)) [Compound 179b]
85.5 nM

# iterate: NC(=O)c1ccc(F)c2c1CC(N(CCCc1c[nH]c3ccc(F)cc13)C1CCC1)CO2 (single isomer, unassigned; (-)) [Compound 4b]
1.53 nM

Another compound: CCCN(CCCc1c[nH]c2ccc(F)cc12)C1COc2c(F)ccc(C(N)=O)c2C1 (single isomer, unassigned; (-)) [Compound 2a]
8.5 nM

Then this compound: COC(=O)c1ccc(F)c2c1C[C@@H](NCCCCc1c[nH]c3ccc(F)cc13)CO2 [Compound 57b]
12.2 nM

Try this compound next: CCN(CCCCc1c[nH]c2ccc(F)cc12)C1COc2cccc(OC)c2C1 (stereo not drawn) [Compound 32]
1.1 nM

What do you get for CCCN(CCCCc1coc2c(OC)cccc12)[C@H]1COc2c(F)ccc(C(N)=O)c2C1 [Compound 172] ?
516 nM

Would you mind doing CCCN(CCCc1coc2ccccc12)C1COc2c(F)ccc(C(N)=O)c2C1 (stereo not drawn) [Compound 20] as well?
575 nM

---

assayed system: cloned human 5-HT1A receptors (Homo sapiens)
Construct: expressed in transfected cells
Sequence (P08908 whole entry): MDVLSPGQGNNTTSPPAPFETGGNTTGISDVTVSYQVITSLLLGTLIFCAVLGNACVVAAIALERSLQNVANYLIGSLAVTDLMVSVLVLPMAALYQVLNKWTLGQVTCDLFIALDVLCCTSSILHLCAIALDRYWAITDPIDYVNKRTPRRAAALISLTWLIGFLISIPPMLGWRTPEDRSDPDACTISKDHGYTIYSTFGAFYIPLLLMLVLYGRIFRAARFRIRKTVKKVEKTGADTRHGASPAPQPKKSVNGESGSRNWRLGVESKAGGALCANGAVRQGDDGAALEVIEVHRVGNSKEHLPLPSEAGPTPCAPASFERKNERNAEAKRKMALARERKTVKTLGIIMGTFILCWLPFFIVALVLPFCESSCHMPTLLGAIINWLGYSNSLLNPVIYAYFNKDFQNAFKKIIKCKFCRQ
measurement notes: 35S-GTPγS binding assay, 5-HT1A function
Type: biochemical
condition label: antagonist potency, reversal of 8-OH-DPAT; read-out: 5-HT1A Function GTPγS IC50
assay metric: pIC50
Please report pIC50 as the negative decimal logarithm of the molar concentration, giving only the number.

Under cloned human 5-HT1A receptors (Homo sapiens): pIC50 value of NC(=O)c1ccc(F)c2c1CC(N(CCCCn1ccc3cccc(F)c31)CC1CC1)CO2 (stereo not shown) ?
6.69

And for COc1ccc2[nH]cc(CCCN(C3CCC3)C3COc4c(F)ccc(C(N)=O)c4C3)c2c1 (stereo not shown) ?
6.60

Then this compound: NC(=O)c1ccc(F)c2c1CC(N(CCCCc1c[nH]c3ccc(F)cc13)CC1CC1)CO2 (stereo not shown)
6.79

Then what about the compound NC(=O)c1ccc(F)c2c1CC(N(CC1CCc3[nH]c4ccc(F)cc4c3C1)C1CCC1)CO2 (single isomer, unassigned; (+)) [Compound 174b] ?
5.84
